# experiment description: Cellular viability qHTS for adrenocortical cancer (ACC) cell line NCI-H295R (AID 1963990); note: nearly all actives have a fitted effect of over 60% in size
# condition label: CellTiter-Glo ATP luminescence, 48 h; series mostly up to 46.1 µM
# From the text: PI: Naris Nilubol, MD Surgical Oncology Program, National Cancer Institute (NCI) National Institute of Health (NIH), Bethesda, Maryland Adrenocortical cancer (ACC) is a rare malignancy with poor survival outcomes and few treatment options. Currently, mitotane is the only FDA-approved therapy for ACC. […] Through a quantitative high-throughput drug screen (qHTS), we identified auranofin (AF), a thioredoxin reductase (TXNRD) inhibitor, as a promising candidate drug. […]
Records with an inconclusive call do not appear. The source made the active and inactive calls. Calls come from the whole dose curve; as a rule, active = well fitted cell-killing curve with a large enough effect; inconclusive = small, poorly fitted or top-dose-only effect; inactive = flat fitted curve, though single readings scatter.
Mark one answer only. Choices: yes = active, no = inactive

Solved entries:
[[record]]
compound = "NC(=O)c1cc([N+](=O)[O-])cc([N+](=O)[O-])c1"
class = "yes"

[[record]]
compound = "O=c1n(Cl)c(=O)n(Cl)c(=O)n1Cl"
class = "no"

[[record]]
compound = "CCN(CC)C(C)C(=O)c1ccccc1 (configuration not stated)"
class = "no"

[[record]]
compound = "C[N+]1(CCF)[C@@H]2CC[C@H]1CC(OC(=O)C(O)(c1ccccc1)c1ccccc1)C2 (some centres not stated)"
class = "no"

[[record]]
compound = "CN1C2CCC(C)(C)C1CC(OC(=O)C(O)(c1cccs1)c1cccs1)C2 (configuration not stated)"
class = "no"

[[record]]
compound = "CC(Cc1ccc2c(c1)OCO2)NO (configuration not stated)"
class = "no"

[[record]]
compound = "Cc1ccc(-c2nc3ccc(C)cn3c2CC(=O)N(C)C)cc1"
class = "no"

[[record]]
compound = "Cc1cccc(C)c1NC(=O)CN1CCCC1=O"
class = "no"

[[record]]
compound = "CC(Cc1ccccc1)N(C)Cc1ccco1 (configuration not stated)"
class = "no"

[[record]]
compound = "Nc1ccc(Cl)cc1"
class = "no"


# lookup: test call for "C[C@@H]1CC2=CC(=O)CC[C@@H]2[C@H]2CC[C@@]3(C)[C@@H](CC[C@]3(C)O)[C@@H]21"
no

# lookup: test call for "CC(=O)OC[C@H]1O[C@@H]([S-])[C@H](OC(C)=O)[C@@H](OC(C)=O)[C@@H]1OC(C)=O.CC[PH+](CC)CC.[Au]"
yes

# lookup: test call for "CCN[C@@H](C)Cc1cccc(C(F)(F)F)c1"
no

* * *

# experiment description: Quantitative highthroughput screen to assess conditional lethalithy of SEM cells grown in RPMI1640 with dialyzed fetal bovine serum (RPMI+ds) (AID 1963884); note: nearly all actives have a fitted effect of over 35% in size;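 for viability: 100% = DMSO control wells and 0% = empty wells without cells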
# condition label: SEM B-ALL cells, RPMI+dialyzed FBS, CellTiter-Glo viability, 48 h; series mostly up to 45.8 µM
# Procedure: Assay Provider: Jason Cantor Ph.D. Department of Biochemistry University of Wisconsin-Madison, Madison, WI, USA Chemical screening studies have identified drug sensitivities across hundreds of cancer cell lines but most putative therapeutics fail to translate. […] Sets of conditional anticancer compounds spanned phases of clinical development and included non-oncology drugs were assessed. […] 6; Detection; Luminescence, Viewlux PerkinElmer. […]
Results filed as inconclusive are left out. Active and inactive are the calls of the source. The call rests on the fitted dose curve; in most records, active means well fitted cell-killing curve with a large enough effect; inconclusive means small, poorly fitted or top-dose-only effect, or effect the other way; inactive means no such curve, though single readings can be large or run the other way.
Mark one answer only. Choices: active, inactive

Solved entries:
[[record]]
smiles_data = "C[C@]12CC[C@@H]3[C@@H](CCC4=CC(=O)CC[C@@H]43)[C@@H]1CC[C@@H]2OC(=O)CCc1ccccc1"
class = "inactive"

[[record]]
smiles_data = "CN(C)CCc1ccc(O)cc1"
class = "inactive"

[[record]]
smiles_data = "O=c1[nH]c2ccc(Cl)cc2c(N[C@@H]2CN3CCC2CC3)c1-c1nc2ccccc2[nH]1"
class = "active"

[[record]]
smiles_data = "Cc1cccc(C)c1NC(=O)CN1CCCC1=O"
class = "inactive"

[[record]]
smiles_data = "C[C@]12CC[C@H](O)CC1=CC[C@H]1[C@H]3CCC(=O)[C@@]3(C)CC[C@@H]12"
class = "inactive"

[[record]]
smiles_data = "CC=C(C)C(=O)O[C@H]1C(C)=C2[C@@H]3OC(=O)[C@@](C)(O)[C@@]3(O)[C@@H](OC(=O)CCC)C[C@](C)(OC(C)=O)[C@@H]2[C@@H]1OC(=O)CCCCCCC"
class = "active"


# lookup: test call for "Cc1nc(-c2ccc(-c3ccc(C(=O)N4CCc5cc6c(cc54)C4(CCN(C)CC4)CO6)cc3)c(C)c2)no1"
inactive

# lookup: test call for "C[C@]12CC[C@H]3[C@@H](CC[C@@]45O[C@H]4C(O)=C(C#N)C[C@]35C)[C@H]1CC[C@H]2O"
active

* * *

# experiment description: Quantitative highthroughput screen to assess conditional lethalithy of NOMO1 cells grown in RPMI1640 with dialyzed fetal bovine serum (RPMI+ds) (AID 1963877); note: nearly all actives have a fitted effect of over 30% in size; note: potency is the fitted concentration of half-maximal effect;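 for viability: 100% = DMSO control wells and 0% = empty wells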
# condition label: NOMO1 in RPMI+dialyzed FBS viability, ATP luminescence, 48 h; series mostly up to 45.8 µM
Records with an inconclusive call do not appear. Calls of active or inactive are those of the source. Calls come from the whole dose curve; as a rule, active = well fitted cell-killing curve with a large enough effect; inconclusive = small, poorly fitted or top-dose-only effect; inactive = flat fitted curve, though single readings scatter.
recorded metric: Potency

[[record]]
smiles_data = "COC1=C[C@@H]2[C@@H]3Cc4ccc(OC)c(O)c4[C@]2(CCN3C)CC1=O"
readout_value = "inactive"

[[record]]
smiles_data = "COC(=O)[C@@H](N)CCCN=C(N)N[N+](=O)[O-]"
readout_value = "inactive"

[[record]]
smiles_data = "C=CCON=C(C[C@H]1O[C@@H]2O[C@]3(C)CC[C@@H]4[C@H](C)CC[C@@H]([C@H]1C)[C@@]24OO3)[C@H]1O[C@@H]2O[C@]3(C)CC[C@H]4[C@H](C)CC[C@@H]([C@@H]1C)[C@@]24OO3"
readout_value = "743 nM (active)"

[[record]]
smiles_data = "O=c1[nH]c2ccccc2n1CCCN1CCC(n2c(=O)[nH]c3cc(Cl)ccc32)CC1"
readout_value = "inactive"

[[record]]
smiles_data = "COc1cc2cc(c1Cl)N(C)C(=O)C[C@H](OC(=O)C(C)C)[C@]1(C)O[C@H]1[C@H](C)[C@@H]1C[C@@](O)(NC(=O)O1)[C@H](OC)C=CC=C(C)C2"
readout_value = "inactive"


Shifting focus to the compound that follows.
Give the value of Potency reported for the following: "CC[C@@H]1[C@@H](C)O[C@@](O)([C@@H](C)[C@H](O)[C@H](C)[C@H]2OC(=O)C=CC=C[C@@H](C)[C@@H]([C@@H](C)[C@@H](O)[C@H](C)[C@@]3(O)C[C@H](O[C@H]4C[C@H](O)[C@H](O)[C@H](C)O4)[C@H](CC)[C@@H](C)O3)OC(=O)C=CC=C[C@@H]2C)C[C@H]1O[C@H]1C[C@H](O)[C@H](O)[C@H](C)O1"
2640 nM (active)

* * *

# experiment description: Viability qHTS for spleen associated tyrosine kinase inhibitor (SYKi) drug resistant MV4-11 cells (AID 1963824); note: nearly all actives have a fitted effect of over 35% in size
# condition label: SYKi-resistant MV4-11 viability, CellTiter-Glo, 72 h; series mostly up to 45 µM
Records with an inconclusive call do not appear. Calls of active or inactive are those of the source. Calls come from the whole dose curve; as a rule, active = well fitted cell-killing curve with a large enough effect; inconclusive = small, poorly fitted or top-dose-only effect, or effect the other way; inactive = no such curve, though single readings can be large or run the other way.
Mark one answer only. Choices: t = active, f = inactive

Solved entries:
[[record]]
molecule = "CN(C(=O)CN1C(=O)COc2cc(Cl)c(Cl)cc21)[C@@H](CN1CCCC1)c1ccc(-c2cccc(C(N)=O)c2)cc1"
class = "t"

[[record]]
molecule = "COc1ccsc1CNCC[C@@]1(c2ccccn2)CCOC2(CCCC2)C1"
class = "f"

[[record]]
molecule = "CC1NCCOC1c1ccccc1 (centres undefined)"
class = "f"

[[record]]
molecule = "C#CCN(C)[C@H](C)Cc1ccccc1"
class = "f"

[[record]]
molecule = "CCC1NC(=O)C2C(Cl)C(Cl)CN2C(=O)C(C(C)O)NC(=O)CC(c2ccccc2)NC(=O)C(CO)NC1=O (centres undefined)"
class = "f"

[[record]]
molecule = "COc1ccccc1N1CCNCC1"
class = "f"

[[record]]
molecule = "C[C@@H]1C[C@@H](O)[C@]2(O)O[C@@H]3C[C@@]4(C=O)C(CC[C@@H]5C4CC[C@]4(C)[C@@H](C6=CC(=O)OC6)CC[C@]54O)C[C@H]3O[C@@H]2O1 (some centres undefined)"
class = "t"

[[record]]
molecule = "CC(=O)OC[C@]12C[C@H](OC(=O)CC(C)C)C(C)=C[C@H]1O[C@@H]1[C@H](O)[C@@H](OC(C)=O)[C@@]2(C)[C@@]12CO2"
class = "t"


# lookup: test call for C/C=C1/CN2CC[C@]34C(=Nc5ccc(OC)cc53)C2C[C@@H]1C4(CO)C(=O)OC (some centres undefined)
f

* * *

# experiment description: Cellular viability qHTS for adrenocortical cancer (ACC) cell line SW-13 (AID 1963989);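 note: cells grown in serum-free medium with ITS supplement; % is set by controls: 0 for no effect and ±100 for the full control effect; nearly all actives have a fitted effect of over 65% in size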
# condition label: SW-13 ACC cells viability, CellTiter-Glo, 48 h; hits give low values
Results filed as inconclusive are left out.
recorded metric: activity (max response) (%)
A number alone suffices; assume %.

// known answers, use as guide
[[record]]
smiles_data = "CCCN(CCC)C(=O)Cc1c(-c2ccc(Cl)cc2)nc2ccc(Cl)cn12"
unit_abbrev = "%"
readout_value = -9.21

[[record]]
smiles_data = "CN(C)CCc1c[nH]c2ccc(O)cc12"
unit_abbrev = "%"
readout_value = 2.14

[[record]]
smiles_data = "O=[N+]([O-])O[C@H]1CO[C@H]2[C@@H]1OC[C@H]2O[N+](=O)[O-]"
unit_abbrev = "%"
readout_value = 12.6

[[record]]
smiles_data = "CN1C(=S)CN=C(c2ccccc2)c2cc(Cl)ccc21"
unit_abbrev = "%"
readout_value = -3.17


Shifting focus to the molecule that follows.
Give the value of activity (max response) reported for the following: "C[C@]12CC[C@@H]3c4ccc(OC(=O)N(CCCl)CCCl)cc4CC[C@H]3[C@@H]1CC[C@@H]2OP(=O)(O)O"
-13.4
